Tested on: LoVo
Assay: Cytotoxicity against human doxorubicin resistant LoVo cells after 48 hrs by SRB assay
Assay type: functional
Mark TRUE only for GI50 values smaller than 1000 nM; exact matches and larger values are FALSE.

Answered cases to consult:
compound_smiles=C/C=C1\NC(=O)[C@H](Cc2ccccc2)NC(=O)[C@@H](C(C)C)NC(=O)[C@@H]([C@H](C)CC)NC(=O)[C@H](NC(=O)[C@H](NC(=O)[C@H](CCCN)NC(=O)[C@H]2CCCN2C(=O)[C@H](NC(=O)[C@@H](NC(=O)[C@@H](NC(=O)[C@H](NC(=O)CCCC(C)C)C(C)C)[C@@H](C)O)[C@@H](C)O)C(C)C)[C@H](C)CC)[C@H](C)OC(=O)[C@H](C(C)C)NC1=O qualitative_label=FALSE
compound_smiles=C/C=C1\NC(=O)[C@H](Cc2ccccc2)NC(=O)[C@@H](C(C)C)NC(=O)[C@@H]([C@H](C)CC)NC(=O)[C@H](NC(=O)[C@H](NC(=O)[C@H](CCCN)NC(=O)[C@H]2CCCN2C(=O)[C@H](NC(=O)[C@@H](NC(=O)[C@@H](NC(=O)[C@@H](CCC(N)=O)NC(=O)CCCC(C)C)[C@@H](C)O)C(C)C)C(C)C)[C@H](C)CC)[C@H](C)OC(=O)[C@H](C(C)C)NC1=O qualitative_label=TRUE
compound_smiles=C/C=C1\NC(=O)[C@H](Cc2ccccc2)NC(=O)[C@@H](C(C)C)NC(=O)[C@@H]([C@H](C)CC)NC(=O)[C@H](NC(=O)[C@H](NC(=O)[C@H](CCCN)NC(=O)[C@H]2CCCN2C(=O)[C@H](NC(=O)[C@@H](NC(=O)[C@@H](NC(=O)[C@@H](C)NC(=O)CCCC(C)C)[C@@H](C)O)C(C)C)C(C)C)[C@H](C)CC)[C@H](C)OC(=O)[C@H](C(C)C)NC1=O qualitative_label=TRUE
compound_smiles=C/C=C1\NC(=O)[C@H](Cc2ccccc2)NC(=O)[C@@H](C(C)C)NC(=O)[C@@H]([C@H](C)CC)NC(=O)[C@H](NC(=O)[C@H](NC(=O)[C@H](CCCN)NC(=O)[C@H]2CCCCN2C(=O)[C@H](NC(=O)[C@@H](NC(=O)[C@@H](NC(=O)[C@H](NC(=O)CC[C@@H](C)CC)C(C)C)[C@@H](C)O)C(C)C)C(C)C)[C@H](C)CC)[C@H](C)OC(=O)[C@H](C(C)C)NC1=O qualitative_label=FALSE

Consider now this further compound.
Prompt line: A record lists `CC[C@@H](C)[C@@H](NC(=O)[C@H](CCCN)NC(=O)[C@H]1CCCN1C(=O)[C@H](NC(=O)[C@@H](NC(=O)[C@@H](NC(=O)[C@H](NC(=O)CCCC(C)C)C(C)C)[C@@H](C)O)C(C)C)C(C)C)C(=O)N[C@H]1C(=O)N[C@H]([C@H](C)CC)C(=O)N[C@H](C(C)C)C(=O)N[C@@H](Cc2ccccc2)C(=O)NC(C)(C)C(=O)N[C@@H](C(C)C)C(=O)O[C@H]1C` . Is its GI50 below 1000 nM?
Response line: FALSE

###

Tested on: LoVo
Assay: Cytotoxicity against human doxorubicin resistant LoVo cells after 48 hrs by SRB assay
Assay type: functional
Listing of recorded GI50 by entry.
Expressed in µM, but write only the number.

compound_smiles=C/C=C1\NC(=O)[C@H](CCC2CCCCC2)NC(=O)[C@@H](C(C)C)NC(=O)[C@@H]([C@@H](C)CC)NC(=O)[C@H](NC(=O)[C@H](NC(=O)[C@H](CCCN)NC(=O)[C@H]2CCCN2C(=O)[C@H](NC(=O)[C@@H](NC(=O)[C@@H](NC(=O)[C@H](NC(=O)CCCC(C)C)C(C)C)[C@@H](C)O)C(C)C)C(C)C)[C@@H](C)CC)[C@@H](C)OC(=O)[C@H](C(C)C)NC1=O system_under_test=LoVo measure_unit=µM result=0.224

We next turn to a different compound, shown below.
Measured on LoVo, `CC[C@@H]1NC(=O)[C@H](Cc2ccccc2)NC(=O)[C@@H](C(C)C)NC(=O)[C@@H]([C@H](C)CC)NC(=O)[C@H](NC(=O)[C@H](NC(=O)[C@H](CCCN)NC(=O)[C@H]2CCCN2C(=O)[C@H](NC(=O)[C@@H](NC(=O)[C@@H](NC(=O)[C@H](NC(=O)CCCC(C)C)C(C)C)[C@@H](C)O)C(C)C)C(C)C)[C@H](C)CC)[C@H](C)OC(=O)[C@H](C(C)C)NC1=O` has a documented GI50 of 2.72

###

Below, each of the compounds is paired with its reported TGI value.
Test system: DU-145
Assay: Cytotoxicity against human DU145 cells after 48 hrs by SRB assay
Assay type: functional, cell-based
Conditions: Homo sapiens, DU-145, 48 h
# output: bare number, implied unit µM

compound_smiles=C/C=C1\NC(=O)[C@H](Cc2ccccc2)NC(=O)[C@@H](C(C)C)NC(=O)[C@@H]([C@H](C)CC)NC(=O)[C@H](NC(=O)[C@H](NC(=O)[C@H](CCCN)NC(=O)[C@H]2CCCN2C(=O)[C@H](NC(=O)[C@@H](NC(=O)[C@@H](NC(=O)[C@@H](CCC(N)=O)NC(=O)CCCC(C)C)[C@@H](C)O)C(C)C)C(C)C)[C@H](C)CC)[C@H](C)OC(=O)[C@H](C(C)C)NC1=O metric=TGI result=1.39
compound_smiles=C/C=C1\NC(=O)[C@H](Cc2ccc([N+](=O)[O-])cc2)NC(=O)[C@@H](C(C)C)NC(=O)[C@@H]([C@H](C)CC)NC(=O)[C@H](NC(=O)[C@H](NC(=O)[C@H](CCCN)NC(=O)[C@H]2CCCN2C(=O)[C@H](NC(=O)[C@@H](NC(=O)[C@@H](NC(=O)[C@H](NC(=O)CC[C@@H](C)CC)C(C)C)[C@@H](C)O)C(C)C)C(C)C)[C@H](C)CC)[C@H](C)OC(=O)[C@H](C(C)C)NC1=O metric=TGI result=3.64

Could you now consider this next compound?
// `C/C=C1\NC(=O)[C@@H]2Cc3ccccc3CN2C(=O)[C@@H](C(C)C)NC(=O)[C@@H]([C@H](C)CC)NC(=O)[C@H](NC(=O)[C@H](NC(=O)[C@H](CCCN)NC(=O)[C@H]2CCCN2C(=O)[C@H](NC(=O)[C@@H](NC(=O)[C@@H](NC(=O)[C@H](NC(=O)CC[C@@H](C)CC)C(C)C)[C@@H](C)O)C(C)C)C(C)C)[C@H](C)CC)[C@H](C)OC(=O)[C@H](C(C)C)NC1=O` : TGI value = 3.83

###

System: PANC-1
Experiment: Cytotoxicity against human PANC1 cells after 48 hrs by SRB assay
Format: functional
Conditions: PANC-1, 48 h
Metric: TGI (nM)
Form entry: value (nM) — number only.

compound_smiles=C/C=C1\NC(=O)[C@H](Cc2ccccc2)NC(=O)[C@@H](C(C)C)NC(=O)[C@@H]([C@H](C)CC)NC(=O)[C@H](NC(=O)[C@H](NC(=O)[C@H](CCCNC(=O)/C=C/CCC)NC(=O)[C@H]2CCCN2C(=O)[C@H](NC(=O)[C@@H](NC(=O)[C@@H](NC(=O)[C@H](NC(=O)CCCC(C)C)C(C)C)[C@@H](C)O)C(C)C)C(C)C)[C@H](C)CC)[C@H](C)OC(=O)[C@H](C(C)C)NC1=O system_under_test=PANC-1 result=1670

Okay, now this compound:
Entry under test: `C/C=C1\NC(=O)[C@H](Cc2ccccc2)NC(=O)[C@@H](C(C)C)NC(=O)[C@@H]([C@H](C)CC)NC(=O)[C@H](NC(=O)[C@H](NC(=O)[C@H](CCCN)NC(=O)[C@H]2CCCN2C(=O)[C@H](NC(=O)[C@@H](NC(=O)[C@@H](NC(=O)[C@H](NC(=O)CCCCC(C)(F)F)C(C)C)[C@@H](C)O)C(C)C)C(C)C)[C@H](C)CC)[C@H](C)OC(=O)[C@H](C(C)C)NC1=O` . Its TGI was 1850

###

Recorded CC50 values for a group of compounds are listed next.
Assay: Cytotoxicity against human IGROV-ET cells after 48 hrs by SRB assay
Assay type: functional
Details: read-out: LC50 (the source's name)
Reply numerically in nM, unit not repeated.

See these solved cases before continuing.
compound_smiles=C/C=C1\NC(=O)[C@@H]2C[C@@H]3CCCC[C@@H]3N2C(=O)[C@@H](C(C)C)NC(=O)[C@@H]([C@H](C)CC)NC(=O)[C@H](NC(=O)[C@H](NC(=O)[C@H](CCCN)NC(=O)[C@H]2CCCN2C(=O)[C@H](NC(=O)[C@@H](NC(=O)[C@@H](NC(=O)[C@H](NC(=O)CC[C@@H](C)CC)C(C)C)[C@@H](C)O)C(C)C)C(C)C)[C@H](C)CC)[C@H](C)OC(=O)[C@H](C(C)C)NC1=O result=507
compound_smiles=C/C=C1\NC(=O)[C@H](Cc2ccccc2)NC(=O)[C@@H](C(C)C)NC(=O)[C@@H]([C@H](C)CC)NC(=O)[C@H](NC(=O)[C@H](NC(=O)[C@H](CCCN)NC(=O)[C@H]2CCCN2C(=O)[C@H](NC(=O)[C@@H](NC(=O)[C@@H](NC(=O)[C@@H](Cc2ccccc2)NC(=O)CCCC(C)C)[C@@H](C)O)C(C)C)C(C)C)[C@H](C)CC)[C@H](C)OC(=O)[C@H](C(C)C)NC1=O result=680
compound_smiles=C/C=C1\NC(=O)[C@H](Cc2ccccc2)NC(=O)[C@@H](C(C)C)NC(=O)[C@@H]([C@H](C)CC)NC(=O)[C@H](NC(=O)[C@H](NC(=O)[C@H](CCCNC(=O)C[C@](OC)(c2ccccc2)C(F)(F)F)NC(=O)[C@H]2CCCN2C(=O)[C@H](NC(=O)[C@@H](NC(=O)[C@@H](NC(=O)[C@H](NC(=O)CCCC(C)C)C(C)C)[C@@H](C)O)C(C)C)C(C)C)[C@H](C)CC)[C@H](C)OC(=O)[C@H](C(C)C)NC1=O result=479
compound_smiles=C/C=C1\NC(=O)[C@H](Cc2ccccc2)NC(=O)[C@@H](C(C)C)NC(=O)[C@@H]([C@H](C)CC)NC(=O)[C@H](NC(=O)[C@H](NC(=O)[C@H](CCCN)NC(=O)[C@H]2CCCN2C(=O)[C@H](NC(=O)[C@@H](NC(=O)[C@@H](NC(=O)[C@H](NC(=O)CC[C@@H](C)[C@H]2CC[C@H]3[C@@H]4CC[C@@H]5C[C@H](O)CC[C@]5(C)[C@H]4CC[C@]23C)C(C)C)[C@@H](C)O)C(C)C)C(C)C)[C@H](C)CC)[C@H](C)OC(=O)[C@H](C(C)C)NC1=O result=2280

Proceeding to the next compound to report its CC50.
Documented CC50 of `C/C=C1\NC(=O)[C@H](Cc2ccccc2)NC(=O)[C@@H](C(C)C)NC(=O)[C@@H]([C@H](C)CC)NC(=O)[C@H](NC(=O)[C@H](NC(=O)[C@H](CCCN)NC(=O)[C@H]2CCCN2C(=O)[C@H](NC(=O)[C@@H](NC(=O)[C@@H](NC(=O)[C@@H](CCC(=O)O)NC(=O)CCCC(C)C)[C@@H](C)O)C(C)C)C(C)C)[C@H](C)CC)[C@H](C)OC(=O)[C@H](C(C)C)NC1=O` : 705
